target: Aurora2 (Aurora-A) (Homo sapiens, UniProt O14965); construct: Aurora-A: the full length recombinant protein including an N-terminal poly-histidine tail has been expressed in E. coli; poly-histidine (N); made in house; host or cells: E. coli; assay: Aurora 2 (Aurora A) kinase radioactivity scintillation assay using nickel chelate Flash plates; type: biochemical; details: 10 nM Aurora-A, 500 nM NuMA substrate, 1 μM ATP with [33P] ATP, 10 mM MgCl2, 30 minutes, 37° C.
Sequence (O14965 whole entry): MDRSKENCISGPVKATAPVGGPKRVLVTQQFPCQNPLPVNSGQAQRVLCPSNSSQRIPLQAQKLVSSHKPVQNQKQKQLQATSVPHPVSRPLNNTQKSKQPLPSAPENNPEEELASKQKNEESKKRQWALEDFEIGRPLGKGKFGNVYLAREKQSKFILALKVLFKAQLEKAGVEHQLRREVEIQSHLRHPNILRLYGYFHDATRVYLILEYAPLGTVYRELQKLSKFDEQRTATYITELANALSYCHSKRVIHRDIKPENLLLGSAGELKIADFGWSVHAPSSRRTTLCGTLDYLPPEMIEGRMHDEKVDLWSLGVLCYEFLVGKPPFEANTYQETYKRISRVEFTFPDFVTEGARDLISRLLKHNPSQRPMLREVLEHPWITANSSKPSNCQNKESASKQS
experimental.endpoint: pIC50
Convention used: pIC50 is expressed as -log10 of the molar concentration.

CCOC(=O)c1[nH]cc2c1NC1=C(C(=O)CNC1)C2c1ccc(Sc2nc3cccnc3[nH]2)o1 (stereo not drawn)
6.95
O=C1CNCC2=C1C(c1ccc(-c3ccccc3C(F)(F)F)o1)c1c[nH]nc1N2 (stereo not drawn)
6.05
CCOC(=O)c1[nH]cc2c1NC1=C(C(=O)CCCC1)C2c1ccc(Sc2nc3ccccc3[nH]2)o1 (stereo not drawn)
5.53

State its pIC50: CCOC(=O)c1[nH]cc2c1NC1=C(C(=O)CCC1)C2c1ccc(Sc2nc3cc4c(cc3[nH]2)OC(F)(F)O4)o1 (stereo not drawn)
6.91

Answer with the recorded pIC50 of CCOC(=O)c1[nH]cc2c1NC1=C(C(=O)CCC1)C2c1ccc(Sc2nc3cc(Cl)c(C)cc3[nH]2)o1 (stereo not drawn) only.
7.51

Answer with the recorded pIC50 of Cc1nnsc1C(=O)N1CC(=O)C2=C(C1)Nc1n[nH]cc1C2c1cccc(Oc2ccc(Cl)cc2)c1 (stereo not drawn) only.
5.14

Check the records and state pIC50 for O=C1CNCC2=C1C(c1cccc(C(=O)Nc3cccc(OC(F)(F)F)c3)c1)c1c[nH]nc1N2 (stereo not drawn)
5.39

Report pIC50 for CCOC(=O)c1[nH]cc2c1NC1=C(C(=O)CCC1)C2c1ccc(Sc2nc3ccncc3[nH]2)o1 (stereo not drawn)
5.51

Tell me its pIC50 given O=C1CC(c2ccccc2F)CC2=C1C(c1ccc(Sc3nc4ccccc4[nH]3)o1)c1c[nH]nc1N2 (stereo not drawn) as the entry.
7.74
